The origin of these recorded values is ChEMBL document CHEMBL1961873.

experimentalSystem: Tyrosine-protein kinase Fyn (Homo sapiens) (UniProt P06241)
Sequence (P06241 2-537 limits assumed): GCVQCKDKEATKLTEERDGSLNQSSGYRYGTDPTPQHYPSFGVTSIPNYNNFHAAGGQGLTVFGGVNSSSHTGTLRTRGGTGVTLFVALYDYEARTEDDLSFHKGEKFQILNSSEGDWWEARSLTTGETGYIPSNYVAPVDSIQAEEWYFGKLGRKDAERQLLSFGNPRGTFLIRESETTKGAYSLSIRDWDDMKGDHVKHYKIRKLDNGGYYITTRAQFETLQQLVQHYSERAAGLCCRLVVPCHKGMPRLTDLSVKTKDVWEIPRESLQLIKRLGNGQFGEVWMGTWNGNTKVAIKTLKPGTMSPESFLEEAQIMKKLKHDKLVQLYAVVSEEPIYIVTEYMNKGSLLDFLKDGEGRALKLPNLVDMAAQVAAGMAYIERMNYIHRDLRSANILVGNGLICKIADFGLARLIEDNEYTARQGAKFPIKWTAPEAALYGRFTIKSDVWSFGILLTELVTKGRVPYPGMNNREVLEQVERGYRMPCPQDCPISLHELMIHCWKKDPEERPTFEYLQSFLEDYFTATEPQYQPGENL
experimentalContext: at 0.1 µM
Description: GSK_PKIS: FYN mean inhibition at 0.1 uM [Nanosyn]
measuredMetric: inhibition
Field: value (include unit after the number)

Example cases with answers are listed next.
- COc1cc(Nc2ncc3c(C)nc(-c4cccc(Oc5ccccc5)c4)n3n2)cc(OC)c1OC: 1.2%
- FC(F)(F)c1cccc(Nc2nccc(-c3cnn4nc(-c5ccccc5)ccc34)n2)c1: 0.72%
- CNC(=O)c1cncc(/C=C/c2c(C)cccc2C)c1: 0.61%
- CCN(CC)Cc1ccc(Nc2nccc(-c3cnn4ncccc34)n2)cc1: -1.69%

Query molecule follows.
Consider the molecule CS(=O)(=O)CCNCc1cc(-c2cc3c(Nc4ccc(OCc5cccc(F)c5)c(Cl)c4)ncnc3s2)cs1 and give its measured inhibition. 0.55%
